In this section we review reported normalised viability values for a set of molecules.
# Test system: MDA-MB-468
# procedure.text: normalised viability (% of control), CellTiter-Blue; higher = more viable cells (about 100 = DMSO control)
# assay.context: 100 nM; incubation time: 72 h
Quick note: give the figure in %, leave out the unit.

Known normalised viability results, listed for orientation:
C=CCN(/C=C1/C(=O)O[C@H](COC)[C@@]2(C)C1=C(O)C(=O)C1=C2[C@H](OC(C)=O)C[C@]2(C)C(=O)CC[C@@H]12)CC=C; 90.2
CO[C@@]12[C@H](COC(N)=O)C3=C(C(=O)C(C)=C(N)C3=O)N1C[C@@H]1N[C@@H]12; 92
Cn1cc(C2=C(c3cn(C4CCN(Cc5ccccn5)CC4)c4ccccc34)C(=O)NC2=O)c2ccccc21; 105
COc1ccc(S(=O)(=O)Nc2cccnc2Nc2ccc(O)cc2)cc1; 101

Simply: `C=CCn1c(=O)c2cnc(Nc3ccc(N4CCN(C)CC4)cc3)nc2n1-c1cccc(C(C)(C)O)n1` , MDA-MB-468, normalised viability = 95.5

Simply: `CNC(=O)c1ccccc1Sc1ccc2c(/C=C/c3ccccn3)n[nH]c2c1` , MDA-MB-468, normalised viability = 101

###

In this section we review reported normalised response values for a set of molecules.
# Test system: CAL-85-1
# procedure.text: normalised response (% of control), CellTiter-Glo; higher = more viable cells (100 = DMSO, 0 = benzethonium chloride kill control)
# assay.context: incubation time: 72 h
Quick note: give the figure in %, leave out the unit.

CC1(C)CCC(c2ccc(Cl)cc2)=C(CN2CCN(c3ccc(C(=O)NS(=O)(=O)c4ccc(N[C@H](CCN5CCOCC5)CSc5ccccc5)c(S(=O)(=O)C(F)(F)F)c4)cc3)CC2)C1 [Navitoclax] (1 nM); 91.8
CN(Cc1cnc2nc(N)nc(N)c2n1)c1ccc(C(=O)N[C@@H](CCC(=O)O)C(=O)O)cc1 [Methotrexate] (50 nM); 76.7
CCN(CC)CCCC(C)Nc1ccnc2cc(Cl)ccc12 (centres undefined) [Chloroquine] (100 nM); 94.5
COc1cc(Nc2c(C#N)cnc3cc(OCCCN4CCN(C)CC4)c(OC)cc23)c(Cl)cc1Cl [Bosutinib] (10 nM); 94.6
CC[C@H](CO)Nc1nc(NCc2ccccc2)c2ncn(C(C)C)c2n1 [Seliciclib] (1000 nM); 112

Record summary for CCNC(=O)CCC/C=C\C[C@@H]1[C@@H](/C=C/[C@@H](O)CCc2ccccc2)[C@H](O)C[C@@H]1O [Bimatoprost] (550 nM) : reported normalised response = 96.3

Record summary for C=CCN(/C=C1/C(=O)O[C@H](COC)[C@@]2(C)C1=C(O)C(=O)C1=C2[C@H](OC(C)=O)C[C@]2(C)C(=O)CC[C@@H]12)CC=C [Sonolisib] (1 nM) : reported normalised response = 103

Record summary for COc1ccc(S(=O)(=O)Nc2cccnc2Nc2ccc(O)cc2)cc1 [ABT-751] (1 nM) : reported normalised response = 94.6

Record summary for C/C(=C\c1csc(C)n1)[C@@H]1C[C@@H]2O[C@]2(C)CCC[C@H](C)[C@H](O)[C@@H](C)C(=O)C(C)(C)[C@@H](O)CC(=O)N1 [Ixabepilone] (100 nM) : reported normalised response = 99.5
